# system_under_test: human neutrophil collagenase (MMP-8) catalytic domain (Homo sapiens)
# Construct: catalytic domain of human stromelysin (MMP 3) and neutrophil collagenase (MMP8)
# Sequence (P22894 100-262 limits assumed): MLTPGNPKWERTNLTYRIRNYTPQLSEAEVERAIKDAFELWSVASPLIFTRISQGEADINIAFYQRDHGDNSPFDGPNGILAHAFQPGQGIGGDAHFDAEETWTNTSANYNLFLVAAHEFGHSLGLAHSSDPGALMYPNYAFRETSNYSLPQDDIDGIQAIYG
# assay_method_text: Enzymatic activity of the catalytic domain of human neutrophil collagenase (MMP 8), fluorogenic substrate
# conditions: Table 2; pH 7.5
Below, each entry is listed alongside its reported pIC50.
Schema: pIC50 number; meaning minus log10 of the concentration expressed in molar units.

CC(C)COC(=O)Nc1ccc(-c2ccc(S(=O)(=O)N3Cc4ccccc4C[C@@H]3C(=O)O)cc2)cc1 = 5.52

pIC50 for "Cn1cnc2c1C[C@H](C(=O)O)N(S(=O)(=O)c1ccc(-c3ccc(NC(=O)OCc4ccccc4)cc3)cc1)C2" is 6.00

pIC50 for "CC(C)COC(=O)Nc1ccc(-c2ccc(S(=O)(=O)N3Cc4ncn(C)c4C[C@@H]3C(=O)O)cc2)cc1" is 6.70

pIC50 for "CCOC(=O)Nc1ccc(-c2ccc(S(=O)(=O)N3Cc4ccccc4C[C@@H]3C(=O)O)cc2)cc1" is 5.64

pIC50 for "CC(C)OC(=O)Nc1ccc(-c2ccc(S(=O)(=O)N3Cc4ccccc4C[C@@H]3C(=O)O)cc2)cc1" is 5.22

pIC50 for "Cn1cnc2c1C[C@H](C(=O)O)N(S(=O)(=O)c1ccc(-c3ccc(NC(=O)OCC(C)(C)C)cc3)cc1)C2" is 5.30

pIC50 for "CC(C)OC(=O)Nc1ccc(-c2ccc(S(=O)(=O)N3Cc4ncn(C)c4C[C@@H]3C(=O)O)cc2)cc1" is 5.40
